- TARGET DESC: hCB2 (Homo sapiens, UniProt P34972)
- Sequence (P34972 whole entry): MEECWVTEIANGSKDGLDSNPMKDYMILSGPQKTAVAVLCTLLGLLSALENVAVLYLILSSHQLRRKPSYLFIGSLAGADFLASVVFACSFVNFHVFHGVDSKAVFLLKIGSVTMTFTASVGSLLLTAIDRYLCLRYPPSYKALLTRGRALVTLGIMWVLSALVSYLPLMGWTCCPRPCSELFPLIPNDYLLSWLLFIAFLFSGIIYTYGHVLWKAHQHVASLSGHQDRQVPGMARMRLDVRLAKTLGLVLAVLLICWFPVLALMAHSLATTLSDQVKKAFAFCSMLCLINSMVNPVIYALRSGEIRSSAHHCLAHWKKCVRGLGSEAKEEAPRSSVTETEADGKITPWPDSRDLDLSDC
- PROCEDURE SUMMARY: [35S]GTPγS binding assay in hCB2-CHO-K1 cell membranes
RESULT TYPE: EC50 (nM)
One number for each entry, in nM.

In the examples that follow, each entry is paired with its recorded EC50.
# CHEMICAL SMILES, EC50 (nM)
rows = [
    ("COc1ccc2c(c1)sc(=NC(=O)C1C(C)(C)C1(C)C)n2CCOC(C)=O", 0.5),
    ("CC(=O)OCCn1c(C)c(C)s/c1=N\\C(=O)C1C(C)(C)C1(C)C", 0.09),
]

Give EC50 for each listed item.
1. CC(=O)OCCn1c(=NC(=O)C2C(C)(C)C2(C)C)sc2cc(Br)ccc21
2. CC(=O)OCCn1c(=NC(=O)C2C(C)(C)C2(C)C)sc2cc(OC(F)(F)F)ccc21
3. CC(=O)OCCn1c(=NC(=O)C2C(C)(C)C2(C)C)sc2cc(C)ccc21

Output line:
[0.76, 0.25, 1.23]
